Listing of entries alongside the reported Efficacy.
target: Glucagon-like peptide 1 receptor (Rattus norvegicus); test: Agonist activity at rat GLP1R expressed in HEK293 cells assessed as stimulation of cAMP levels incubated for 6 hrs by multiple response element/cAMP response element (MRE/CRE)-driven reporter gene assay relative to 10 nM GLP1; format: functional, cell-based
Report as a plain number; the unit % is understood.

Before answering, review these 10 worked examples.
Compound: COc1cc([C@H]2[C@](NC(=O)c3ccc(NC(=O)COCc4ccccc4)cc3)(C(=O)O)[C@@H](c3ccc(OC(=O)c4cccs4)c(OC)c3)[C@]2(NC(=O)c2ccc(NC(=O)COCc3ccccc3)cc2)C(=O)O)ccc1OC(=O)c1cccs1
Efficacy / %: 12
--
Compound: COc1cc([C@H]2[C@](NC(=O)c3ccc(NC(=O)Cc4ccccc4)cc3)(C(=O)O)[C@@H](c3ccc(OC(=O)c4cccs4)c(OC)c3)[C@]2(NC(=O)c2ccc(NC(=O)Cc3ccccc3)cc2)C(=O)O)ccc1OC(=O)c1cccs1
Efficacy / %: 32
--
Compound: COc1cc([C@H]2[C@](NC(=O)c3ccc(NC(=O)OC(C)(C)C)cc3)(C(=O)O)[C@@H](c3ccc(OC(=O)c4cccs4)c(OC)c3)[C@]2(NC(=O)c2ccc(NC(=O)OC(C)(C)C)cc2)C(=O)O)ccc1OC(=O)c1cccs1 (stereo in doubt)
Efficacy / %: 121
--
Compound: COc1cc([C@H]2[C@](NC(=O)c3ccc(NC(=O)C(C)N)cc3)(C(=O)O)[C@@H](c3ccc(OC(=O)c4cccs4)c(OC)c3)[C@]2(NC(=O)c2ccc(NC(=O)C(C)N)cc2)C(=O)O)ccc1OC(=O)c1cccs1 (some centres undefined)
Efficacy / %: 48
--
Compound: COc1cc([C@H]2[C@](NC(=O)c3ccc(NC(=O)C(C)NC(=O)OC(C)(C)C)cc3)(C(=O)O)[C@@H](c3ccc(OC(=O)c4cccs4)c(OC)c3)[C@]2(NC(=O)c2ccc(NC(=O)C(C)NC(=O)OC(C)(C)C)cc2)C(=O)O)ccc1OC(=O)c1cccs1 (some centres undefined)
Efficacy / %: 49
--
Compound: COc1cc([C@H]2[C@](NC(=O)c3ccc(NC(=O)C45CC6CC(CC(C6)C4)C5)cc3)(C(=O)O)[C@@H](c3ccc(OC(=O)c4cccs4)c(OC)c3)[C@]2(NC(=O)c2ccc(NC(=O)C34CC5CC(CC(C5)C3)C4)cc2)C(=O)O)ccc1OC(=O)c1cccs1
Efficacy / %: 6
--
Compound: COc1cc([C@H]2[C@](NC(=O)c3ccc(NC(=O)OC(C)(C)C)cc3)(C(=O)O)[C@@H](c3ccc(OC(=O)C45CC6CC(CC(C6)C4)C5)c(OC)c3)[C@]2(NC(=O)c2ccc(NC(=O)OC(C)(C)C)cc2)C(=O)O)ccc1OC(=O)C12CC3CC(CC(C3)C1)C2
Efficacy / %: 86
--
Compound: COc1cc([C@H]2[C@](NC(=O)c3ccc(NC(=O)Nc4cccc(F)c4)cc3)(C(=O)O)[C@@H](c3ccc(OC(=O)c4cccs4)c(OC)c3)[C@]2(NC(=O)c2ccc(NC(=O)Nc3cccc(F)c3)cc2)C(=O)O)ccc1OC(=O)c1cccs1
Efficacy / %: 7.7
--
Compound: CCOC(=O)CNC(=O)Nc1ccc(C(=O)N[C@]2(C(=O)O)[C@H](c3ccc(OC(=O)c4cccs4)c(OC)c3)[C@@](NC(=O)c3ccc(NC(=O)NCC(=O)OCC)cc3)(C(=O)O)[C@@H]2c2ccc(OC(=O)c3cccs3)c(OC)c2)cc1
Efficacy / %: 33.7
--
Compound: CCOc1cc([C@H]2[C@](NC(=O)c3ccc(NC(=O)OC(C)(C)C)cc3)(C(=O)O)[C@@H](c3ccc(OC(=O)c4cccs4)c(OCC)c3)[C@]2(NC(=O)c2ccc(NC(=O)OC(C)(C)C)cc2)C(=O)O)ccc1OC(=O)c1cccs1
Efficacy / %: 85.6

Find the measured Efficacy of COc1cc([C@H]2[C@](NC(=O)c3ccc(NC(=O)CO)cc3)(C(=O)O)[C@@H](c3ccc(OC(=O)c4cccs4)c(OC)c3)[C@]2(NC(=O)c2ccc(NC(=O)CO)cc2)C(=O)O)ccc1OC(=O)c1cccs1 and report it.
38

Indicate its recorded Efficacy; the compound in question is COc1cc([C@H]2[C@](NC(=O)c3ccc(NC(=O)C(C)C)cc3)(C(=O)O)[C@@H](c3ccc(OC(=O)C4CCC4)c(OC)c3)[C@]2(NC(=O)c2ccc(NC(=O)C(C)C)cc2)C(=O)O)ccc1OC(=O)C1CCC1
50.7

// fetch Efficacy given entry COc1cc([C@H]2[C@](NC(=O)c3ccc(NC(C)=O)cc3)(C(=O)O)[C@@H](c3ccc(OC(=O)c4cccs4)c(OC)c3)[C@]2(NC(=O)c2ccc(NC(C)=O)cc2)C(=O)O)ccc1OC(=O)c1cccs1
61.1
